# testProtocol: NCI Yeast Anticancer Drug Screen. Data for the rad50 strain (AID 155);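 also: 0% = growth of vehicle-only cultures of the same strain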
# setupConditions: S. cerevisiae rad50 strain growth inhibition; at 50.0 µM (retest, dose inferred, filed as 5.0); active compounds read high
# Protocol: Growth inhibition of yeast strains with defined genetic alterations is measured as a screen for potential anti-cancer activity. Selected strains with alterations in DNA damage repair or cell cycle control were exposed to compounds and growth inhibition was measured relative to vehicle treated controls. The strain used in this assay is rad50
Compounds without any hit were thinned out: in the full panel of roughly 79,000, 15% have a hit.
# growth inhibition listing for each entry below
Use % as the unit, but write only the number.

Below are worked cases with known answers.
1. COC1NC(=O)NC(=O)C1=[N+]=[N-] (configuration not stated) = -50
2. O=C(c1ccccc1)C1CCCN(CCc2ccccc2)C1 (configuration not stated) = 64
3. CC(O[Si](c1ccccc1)(c1ccccc1)C(C)(C)C)[C@H](NC(=O)OC(C)(C)C)C(=O)O (some centres not stated) = 58

-- ask Looking for the measured growth inhibition of Oc1cccnc1[Se] , can you help?
-- reply 55

-- ask Looking for the measured growth inhibition of CCCCCC(Cn1ccnc1)c1ccc(Cl)cc1Cl (configuration not stated) , can you help?
-- reply 95

-- ask Looking for the measured growth inhibition of C1CC[N-]CC1.[Cl][Au]([Cl])[Cl] , can you help?
-- reply 93

-- ask Looking for the measured growth inhibition of [O]=[Sb]([OH])([OH])[c]1ccccc1 , can you help?
-- reply 98

-- ask Looking for the measured growth inhibition of CC(=O)O[C@H]1CC[C@H]2[C@@H]3CCC4=CC(=O)CC[C@@H]4[C@H]3CC[C@]12C , can you help?
-- reply 93

-- ask Looking for the measured growth inhibition of CCOP(=S)(OCC)SC(O)(C(F)F)C(F)F , can you help?
-- reply 34

-- ask Looking for the measured growth inhibition of c1cc[c]([Sn]([c]2ccccc2)([c]2ccccc2)[CH]2CCCCC2)cc1 , can you help?
-- reply 89

-- ask Looking for the measured growth inhibition of N=C(N)c1ccccc1 , can you help?
-- reply 79

-- ask Looking for the measured growth inhibition of COC1OC(COC(C)=O)C(OC(C)=O)C(OC(C)=O)[C]1(OC(C)=O)[Hg][O]C(C)=O (configuration not stated) , can you help?
-- reply 99

* * *

# growth inhibition listing for each entry below
# testProtocol: NCI Yeast Anticancer Drug Screen. Data for the bub3 strain (AID 167)
# setupConditions: S. cerevisiae bub3 mutant strain, at 5.0 µM (retest, dose inferred, filed as 0.5), active compounds read high
The panel holds about 79,000 compounds, 15% with a hit somewhere; the sample as a whole holds those more often.
Use % as the unit, but write only the number.

Below are worked cases with known answers.
1. CCc1cc2c(cc1-c1csc(C/C(N)=N/O)n1)C(C)(C)CCC2(C)C = 48
2. Cc1ccc2nc3sc(=O)sc3nc2c1 = 59
3. N#Cc1cc(N(CCCl)CCCl)c([N+](=O)[O-])cc1[N+](=O)[O-] = -11
4. Nc1ccc(Cl)cc1C(=O)c1ccccc1Cl = -12
5. ClC1=C(Cl)C(Cl)(Cl)SS1 = 100
6. CC(Cc1ccccc1)N(C)Cc1nc(C2CCC([N+](=O)[O-])O2)no1 (stereo not drawn) = -16

-- ask Looking for the measured growth inhibition of CC#N.FC(F)(F)C#CC(F)(F)F.FC(F)(F)C#CC(F)(F)F.FC(F)(F)C#CC(F)(F)F.[W] , can you help?
-- reply 94

-- ask Looking for the measured growth inhibition of CC[C@H](C)c1occ2c(O)c(C(=O)O)c(=O)cc-2c1C , can you help?
-- reply 74

-- ask Looking for the measured growth inhibition of c1cc[c]([Pb]([c]2ccccc2)[c]2ccccc2)cc1.c1cc[c]([Pb]([c]2ccccc2)[c]2ccccc2)cc1 , can you help?
-- reply 99

-- ask Looking for the measured growth inhibition of CC(=O)Nc1ccccc1[As](O[As](c1ccccc1)c1ccccc1NC(C)=O)c1ccccc1 (stereo not drawn) , can you help?
-- reply 11

-- ask Looking for the measured growth inhibition of NN1CCCC1C(=O)O (stereo not drawn) , can you help?
-- reply 4

-- ask Looking for the measured growth inhibition of C[C@]12CCC3[C@@H](CC[C@@H]4c5nonc5CC[C@]34C)C1CCC2=O (stereo partly drawn) , can you help?
-- reply -11

-- ask Looking for the measured growth inhibition of CN(C)CC1CCCCC1=O (stereo not drawn) , can you help?
-- reply -69

-- ask Looking for the measured growth inhibition of C[N+](C)=C1C=CC(=C2C=CSC=C2)C=C1 , can you help?
-- reply 17
